FYI, the data here is from the Immune Epitope Database (IEDB).

target.desc: HLA-A*68:01
assay.name: IEDB peptide-MHC binding, purified MHC/competitive/radioactivity; bounds were set here for any values at or beyond the usual limits of such assays
measurement.parameters: source organism: Mammarenavirus choriomeningitidis
measure: pIC50
Give bare numbers, as −log10 of the molar value.

Dear colleague, I am looking for the recorded pIC50 of the following sequence: TSAYLISIFL 5.94

###

target.desc: HLA-A*02:01
assay.name: IEDB peptide-MHC binding, cellular MHC/competitive/fluorescence; bounds were set here for any values at or beyond the usual limits of such assays
measurement.parameters: source organism: Vaccinia virus WR
Binarize IC50 at 10 µM; below is yes, at or above is no.

macromolecule.sequence: DVGYEVIGA
classification: no
--
macromolecule.sequence: QMYRKFSRCT
classification: no
--
macromolecule.sequence: IAVANCVRNL
classification: no

Identify whether the sequence WLRAKRKPAM records IC50 below 10 µM. no

Does the reported IC50 of the following sequence sit strictly below 10 µM? SVDEEGCGPL no

# check: IC50 < 10 µM for VTKRDESSI no

###

target.desc: HLA-A*02:01
assay.name: IEDB peptide-MHC binding, purified MHC/competitive/radioactivity; bounds were set here for any values at or beyond the usual limits of such assays
measurement.parameters: source organism: Mammarenavirus whitewaterense
measure: IC50 (nM)
Numbers only, in nM.

macromolecule.sequence: INISGYNLSL
result.value: 1830

macromolecule.sequence: YNLSLSAAV
result.value: 255

macromolecule.sequence: MIITAVNSLI
result.value: 438

macromolecule.sequence: YVSSIFLHL
result.value: 157

Okay, here is my list. What is IC50 for each of these?
1. TVIKTLLEV
2. FLKMRRIFGV
3. FLLRGPFEA

276
64
11

###

target.desc: HLA-A*68:02
assay.name: IEDB peptide-MHC binding, purified MHC/competitive/radioactivity; bounds were set here for any values at or beyond the usual limits of such assays
measurement.parameters: source organism: Vaccinia virus WR
I'd appreciate it if you could label each record using IC50 and these ranges: bottom end: < 200 nM; midrange: ≥ 200 nM and < 1000 nM; top end: ≥ 1000 nM

Solved entries (count: 4):
macromolecule.sequence: QIFNIISYII
classification: midrange

macromolecule.sequence: MMVILPDKI
classification: top end

macromolecule.sequence: TIAVSVYGAI
classification: midrange

macromolecule.sequence: FTFGDTALYV
classification: bottom end

Now look at this entry.
// return the class label for LTKDRKMLEL top end

###

Kindly state pIC50 for each of the entries shown.
target.desc: HLA-A*02:03
assay.name: IEDB peptide-MHC binding, purified MHC/competitive/radioactivity; bounds were set here for any values at or beyond the usual limits of such assays
measurement.parameters: source organism: Vaccinia virus WR
Numbers only, as −log10 of the molar value.

Some entries whose results are on file:
macromolecule.sequence: FVDTMSIYIA
pIC50: 5.62
--
macromolecule.sequence: YTFAISYCRA
pIC50: 7.42
--
macromolecule.sequence: KQNKFGDSPL
pIC50: 6.67
--
macromolecule.sequence: VITYCLVTHM
pIC50: 6.24
--
macromolecule.sequence: IVNNFITKEI
pIC50: 6.72
--
macromolecule.sequence: FLPQIGGEA
pIC50: 6.92
--
macromolecule.sequence: TVEFDRDKVV
pIC50: 5.80
--
macromolecule.sequence: VIKLVKSLV
pIC50: 6.90
--
macromolecule.sequence: AVANCVRNL
pIC50: 6.94
--
macromolecule.sequence: LLPLTSLVI
pIC50: 6.21

Field: next sequence
Item QIMECSRML has what recorded pIC50? 5.86
